assay: In vivo pharmacokinetics study; conditions: Balb/c, mouse, plasma, iv, 50 mg/kg
quantity: AUC(0-t) (µg·h/mL)
The figure you give is taken to be in µg·h/mL; do not add the unit.

Incoming: Could you tell me which AUC(0-t) is on file for `CC1(C)[C@@H](O[C@H]2O[C@H](C(=O)O)[C@@H](O)[C@H](O)[C@H]2O[C@@H]2O[C@H](C(=O)O)[C@@H](O)[C@H](O)[C@H]2O)CC[C@]2(C)[C@H]3C(=O)C=C4[C@@H]5C[C@@](C)(C(=O)O)CC[C@]5(C)CC[C@@]4(C)[C@]3(C)CC[C@@H]12` ?
Outgoing: 102

---

assay: In vivo pharmacokinetics study; settings: Balb/c, mouse, plasma, iv, 50 mg/kg
quantity: MRT

Incoming: Could you tell me which MRT is on file for `CC1(C)[C@@H](O[C@H]2O[C@H](C(=O)O)[C@@H](O)[C@H](O)[C@H]2O[C@@H]2O[C@H](C(=O)O)[C@@H](O)[C@H](O)[C@H]2O)CC[C@]2(C)[C@H]3C(=O)C=C4[C@@H]5C[C@@](C)(C(=O)O)CC[C@]5(C)CC[C@@]4(C)[C@]3(C)CC[C@@H]12` ?
Outgoing: 4.6 min

---

experiment: In vivo pharmacokinetics study; details: Balb/c, mouse, plasma, iv, 50 mg/kg
quantity: Tmax (min)
The figure you give is taken to be in min; do not add the unit.

Incoming: Could you tell me which Tmax is on file for `CC1(C)[C@@H](O[C@H]2O[C@H](C(=O)O)[C@@H](O)[C@H](O)[C@H]2O[C@@H]2O[C@H](C(=O)O)[C@@H](O)[C@H](O)[C@H]2O)CC[C@]2(C)[C@H]3C(=O)C=C4[C@@H]5C[C@@](C)(C(=O)O)CC[C@]5(C)CC[C@@]4(C)[C@]3(C)CC[C@@H]12` ?
Outgoing: 1

---

experiment: GBM targeted-GL by HPLC in brain homogenate; type: in vivo, orthotopic GBM model mice; conditions: Balb/c nude, mouse, brain homogenate, iv; orthotopic GBM mice, i.v. GL equivalent 50 mg kg^−1, 10 min after injection; read-out: GL concentration detected in brain homogenate
quantity: concentration at 10 min (ng/mL)
The figure you give is taken to be in ng/mL; do not add the unit.

Incoming: Could you tell me which concentration at 10 min is on file for `CC1(C)[C@@H](O[C@H]2O[C@H](C(=O)O)[C@@H](O)[C@H](O)[C@H]2O[C@@H]2O[C@H](C(=O)O)[C@@H](O)[C@H](O)[C@H]2O)CC[C@]2(C)[C@H]3C(=O)C=C4[C@@H]5C[C@@](C)(C(=O)O)CC[C@]5(C)CC[C@@]4(C)[C@]3(C)CC[C@@H]12` ?
Outgoing: 9800
